- protocol: in vivo
- studyConditions: mouse, in vivo, ip, 100 mg/kg
readoutName: mortality (%)
Entry rule: numbers only, all in %.

# input Supply measured mortality of O=c1[nH]cnc2c([C@@H]3O[C@H](CO)[C@@H](O)[C@H]3O)n[nH]c12 in your reply.
# output 20
